Parameter: Difference between optical density before and after culture, S. aureus ATCC 25923. Scope: all listed entries.
System: S. aureus ATCC 25923
PROTOCOL SUMMARY: Antibacterial assay, optical density of culture in TSB
Assay type: cell-based, Staphylococcus aureus
CONDITION LABEL: 200 μM; 37 °C, 18 h
Number only, please.

[
  {
    "COMPOUND": "C=C(C)[C@@H]1CC[C@]2(COC(=O)CCC(=O)OCCC[P+](c3ccccc3)(c3ccccc3)c3ccccc3)CC[C@]3(C)C(CCC4[C@@]5(C)CC[C@H](OC(=O)CCC(=O)OCCC[P+](c6ccccc6)(c6ccccc6)c6ccccc6)C(C)(C)C5CC[C@]43C)C12 (stereo partly shown)",
    "RESULT NUMBER": 0
  }
]

Here's the next entry for you.
For this compound ( C=C(C)[C@@H]1CC[C@]2(COC(=O)CC(C)(C)C(=O)OCCC[P+](c3ccccc3)(c3ccccc3)c3ccccc3)CC[C@]3(C)C(CCC4[C@@]5(C)CC[C@H](OC(C)=O)C(C)(C)C5CC[C@]43C)C12 (stereo partly shown) ), measured Difference between optical density before and after culture, S. aureus ATCC 25923 is 0
